Test: Oral elimination half life in CD1 mouse
Format: ADME, organism-based
Details: in vivo, read-out: beta t1/2 (converted)
measured.metric: half-life (h)
Expressed in h, but write only the number.

Please give the measured half-life for this molecule: CC1(C)CCC(c2ccc(Cl)cc2)=C(CN2CCN(c3ccc(C(=O)NS(=O)(=O)c4ccc(N[C@H](CCN5CCOCC5)CSc5ccccc5)c(S(=O)(=O)C(F)(F)F)c4)cc3)CC2)C1 [NAVITOCLAX]
4

* * *

Reported values of AUC for individual entries
Test: AUC in CD1 mouse at 50 mg/kg, po
Assay type: ADME, organism-based
Parameters: dose 50 mg/kg, route oral
Conditions: plasma
Expressed in µM·h, but write only the number.

Please give the measured AUC for this molecule: `CC1(C)CCC(c2ccc(Cl)cc2)=C(CN2CCN(c3ccc(C(=O)NS(=O)(=O)c4ccc(N[C@H](CCN5CCOCC5)CSc5ccccc5)c(S(=O)(=O)C(F)(F)F)c4)cc3)CC2)C1`
56.7

Further, for `O=C(NS(=O)(=O)c1ccc(N[C@H](CCN2CCOCC2)CSc2ccccc2)c(S(=O)(=O)C(F)(F)F)c1)c1ccc(N2CCN(CC3=C(c4ccc(Cl)cc4)CCCC3)CC2)cc1` ?
25.2

* * *

Experiment: Oral bioavailability in Sprague-Dawley rat at 5 mg/kg
Type: ADME, organism-based
Settings: in vivo
measured.metric: bioavailability (%)
Expressed in %, but write only the number.

Solved cases below.
{"mol.smiles": "O=C(NS(=O)(=O)c1ccc(NCCSc2ccccc2)c([N+](=O)[O-])c1)c1ccc(N2CCN(Cc3ccccc3-c3ccc(Cl)cc3)CC2)cc1", "bioavailability / %": 28}
{"mol.smiles": "CC1(C)CCC(c2ccc(Cl)cc2)=C(CN2CCN(c3ccc(C(=O)NS(=O)(=O)c4ccc(N[C@H](CCN5CCOCC5)CSc5ccccc5)c(S(=O)(=O)C(F)(F)F)c4)cc3)CC2)C1", "bioavailability / %": 20}
{"mol.smiles": "O=C(NS(=O)(=O)c1ccc(N[C@H](CCN2CCOCC2)CSc2ccccc2)c([N+](=O)[O-])c1)c1ccc(N2CCN(Cc3ccccc3-c3ccc(Cl)cc3)CC2)cc1", "bioavailability / %": 16}
{"mol.smiles": "CN(C)CC[C@H](CSc1ccccc1)Nc1ccc(S(=O)(=O)NC(=O)c2ccc(N3CCN(Cc4ccccc4-c4ccc(Cl)cc4)CC3)cc2)cc1C(F)(F)F", "bioavailability / %": 24}

Please give the measured bioavailability for this compound: `CN(C)CC[C@H](CSc1ccccc1)Nc1ccc(S(=O)(=O)NC(=O)c2ccc(N3CCN(Cc4ccccc4-c4ccc(Cl)cc4)CC3)cc2)cc1[N+](=O)[O-]`
6

* * *

Experiment: Cmax in Sprague-Dawley rat at 5 mg/kg, po
Type: ADME, organism-based
Parameters: dose 5 mg/kg, route oral
Conditions: in vivo
measured.metric: Cmax
Entry format: amount then unit.

Solved cases below.
{"mol.smiles": "O=C(NS(=O)(=O)c1ccc(N[C@H](CCN2CCOCC2)CSc2ccccc2)c([N+](=O)[O-])c1)c1ccc(N2CCN(Cc3ccccc3-c3ccc(Cl)cc3)CC2)cc1", "measured.metric": "Cmax", "data.value": "200 nM"}
{"mol.smiles": "O=C(NS(=O)(=O)c1ccc(NCCSc2ccccc2)c([N+](=O)[O-])c1)c1ccc(N2CCN(Cc3ccccc3-c3ccc(Cl)cc3)CC2)cc1", "measured.metric": "Cmax", "data.value": "1150 nM"}

Please give the measured Cmax for this compound: `CN(C)CC[C@H](CSc1ccccc1)Nc1ccc(S(=O)(=O)NC(=O)c2ccc(N3CCN(Cc4ccccc4-c4ccc(Cl)cc4)CC3)cc2)cc1C(F)(F)F`
370 nM
